experiment: Fraction unbound in human plasma; assay type: ADME, cell-free
Give measured fraction unbound for each item. Keep answers brief.
Give bare numbers.

Consider the worked cases shown below.
[[record]]
querysmiles = "N#Cc1cnc2ccc(F)cc2c1N1CCC(C(=O)NCc2ccccc2)CC1"
quantitativereadout = 0.031

[[record]]
querysmiles = "COc1ccc2c(c1)CCN(C(=O)C1CCN(c3c(C#N)cnc4ccc(F)cc34)CC1)C2"
quantitativereadout = 0.011

[[record]]
querysmiles = "Cc1ccc(OC2CCN(c3c(C#N)cnc4ccc(F)cc34)CC2)cn1"
quantitativereadout = 0.024


Please turn your attention to the following entry.
[in] Any idea what its fraction unbound is? The compound is `N#Cc1cnc2ccc(F)cc2c1N1CCC(C(=O)Nc2ccc(S(N)(=O)=O)cc2)CC1`
[out] 0.064

----------
molecular target: UniProtKB P08173; experiment: Positive allosteric modulation of human M4 receptor expressed in CHO cells co-expressing Gqi5 assessed as increase in acetylcholine-induced calcium mobilization relative to acetylcholine; format: functional, cell-based
Please respond with condition met when measured Emax is strictly beneath 70%, and with condition not met in all other cases.

[in] Here's an entry: `N#Cc1cnc2ccc(F)cc2c1N1CCC(C(=O)N2CCc3ccccc3C2)CC1` . Is its Emax below 70%?
[out] condition not met

[in] Here's an entry: `N#Cc1cnc2ccc(F)cc2c1N1CCC(C(=O)Nc2ccncc2)CC1` . Is its Emax below 70%?
[out] condition not met

[in] Here's an entry: `COc1ccc(CNC(=O)C2CCN(c3c(C#N)cnc4ccc(F)cc34)CC2)cc1F` . Is its Emax below 70%?
[out] condition met

[in] Here's an entry: `N#Cc1cnc2ccc(F)cc2c1N1CCC(C(=O)Nc2ccncn2)CC1` . Is its Emax below 70%?
[out] condition met

[in] Here's an entry: `Cc1ccc(OC2CCN(c3c(C#N)cnc4c(F)cc(F)cc34)CC2)cn1` . Is its Emax below 70%?
[out] condition not met

[in] Here's an entry: `N#Cc1cnc2ccc(F)cc2c1N1CCC(C(=O)N2CCSCC2)CC1` . Is its Emax below 70%?
[out] condition not met

----------
target: Muscarinic acetylcholine receptor M4 (Homo sapiens) (UniProt P08173); test: Positive allosteric modulation of human M4 receptor expressed in CHO cells co-expressing Gqi5 assessed as increase in acetylcholine-induced calcium mobilization relative to acetylcholine; format: functional, cell-based
Sequence (P08173 whole entry): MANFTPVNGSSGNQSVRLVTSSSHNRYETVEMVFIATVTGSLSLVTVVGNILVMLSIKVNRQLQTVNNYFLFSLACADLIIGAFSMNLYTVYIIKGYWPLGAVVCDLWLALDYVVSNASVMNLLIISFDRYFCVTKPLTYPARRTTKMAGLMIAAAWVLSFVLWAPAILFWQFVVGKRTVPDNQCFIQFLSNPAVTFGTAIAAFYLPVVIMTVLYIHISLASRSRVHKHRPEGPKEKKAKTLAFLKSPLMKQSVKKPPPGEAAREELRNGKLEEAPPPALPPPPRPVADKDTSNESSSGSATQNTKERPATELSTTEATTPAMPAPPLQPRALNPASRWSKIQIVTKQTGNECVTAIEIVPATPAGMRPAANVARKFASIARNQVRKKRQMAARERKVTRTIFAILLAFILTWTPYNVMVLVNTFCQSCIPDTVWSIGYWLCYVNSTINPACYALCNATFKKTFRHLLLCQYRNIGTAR
Give measured Emax for each item. Keep answers brief.
Give bare numbers, in %.

Batch lookup, Emax per entry.
1. Cc1ccc(OC2CCN(c3c(C#N)cnc4ccc(F)cc34)CC2)cn1
2. Cn1nccc1NC(=O)C1CCN(c2c(C#N)cnc3ccc(F)cc23)CC1
3. N#Cc1cnc2ccc(F)cc2c1N1CCC(C(=O)Nc2ccc(F)c(F)c2)CC1
4. COc1ccccc1CNC(=O)C1CCN(c2c(C#N)cnc3ccc(F)cc23)CC1
5. N#Cc1cnc2ccc(F)cc2c1N1CCC(Oc2ccc(F)nc2)CC1
6. N#Cc1cnc2ccc(F)cc2c1N1CCC(C(=O)Nc2ccc(S(N)(=O)=O)cc2)CC1

[out]
[79, 81, 52, 48, 83, 63]

Batch lookup, Emax per entry.
1. N#Cc1cnc2ccc(F)cc2c1N1CCC(C(=O)N2CCOCC2)CC1
2. N#Cc1cnc2ccc(F)cc2c1N1CCC(Oc2ccccc2)CC1

[out]
[78, 81]

[in] Any idea what its Emax is? The compound is `Cc1ccc(OC2CCN(c3c(C#N)cnc4ccc(F)cc34)CC2)c(F)n1`
[out] 53

----------
Give measured log10(EC50) for each item. Keep answers brief.
target: Muscarinic acetylcholine receptor M4 (Homo sapiens, UniProt P08173); experiment: Positive allosteric modulation of human M4 receptor expressed in CHO cells co-expressing Gqi5 assessed as increase in acetylcholine-induced calcium mobilization; type: functional, cell-based; conditions: read-out: EC50
Sequence (P08173 whole entry): as above
Hello, just confirming the data are log10 of EC50 with units of nM.

[[record]]
querysmiles = "N#Cc1cnc2ccc(F)cc2c1N1CCC(C(=O)Nc2ccncc2)CC1"
quantitativereadout = 2.17

[[record]]
querysmiles = "Cc1ccc(OC2CCN(c3c(C#N)cnc4c(F)cc(F)cc34)CC2)cn1"
quantitativereadout = 2.35

[[record]]
querysmiles = "N#Cc1cnc2ccc(F)cc2c1N1CCC(C(=O)Nc2ccc(F)c(F)c2)CC1"
quantitativereadout = 2.75

[[record]]
querysmiles = "N#Cc1cnc2ccc(F)cc2c1N1CCC(C(=O)Nc2ccc(S(N)(=O)=O)cc2)CC1"
quantitativereadout = 2.39

[[record]]
querysmiles = "N#Cc1cnc2ccc(F)cc2c1N1CCC(C(=O)Nc2ccncn2)CC1"
quantitativereadout = 2.97


Batch lookup, log10(EC50) per entry.
1. Cc1ccc2ncc(C#N)c(N3CCC(Oc4ccc(C)nc4)CC3)c2c1
2. Cc1ccc(OC2CCN(c3c(C#N)cnc4cc(F)c(F)cc34)CC2)cn1
3. N#Cc1cnc2ccc(F)cc2c1N1CCC(Oc2ccc(F)nc2)CC1

[out]
1. 3.48
2. 2.76
3. 2.71

----------
test: Volume of distribution at steady state in rat plasma at 0.2 mg/kg administered as iv cassette dose; format: ADME, organism-based; details: read-out: Vdss
propertyMeasured: Vd (L/kg)
Give bare numbers, in L/kg.

[in] Any idea what its Vd is? The compound is `Cc1ccc(OC2CCN(c3c(C#N)cnc4ccc(F)cc34)CC2)cn1`
[out] 3.2

----------
biological target: Muscarinic acetylcholine receptor M4 (Homo sapiens); assay: Positive allosteric modulation of human M4 receptor expressed in CHO cells co-expressing Gqi5 assessed as increase in acetylcholine-induced calcium mobilization; type: functional, cell-based; conditions: read-out: pEC50 (converted)
propertyMeasured: EC50 (nM)
Answers are plain numbers, in nM.

[[record]]
querysmiles = "N#Cc1cnc2ccc(F)cc2c1N1CCC(C(=O)Nc2ccccn2)CC1"
quantitativereadout = 871

[[record]]
querysmiles = "COc1ccc(CNC(=O)C2CCN(c3c(C#N)cnc4ccc(F)cc34)CC2)cc1F"
quantitativereadout = 1050

[[record]]
querysmiles = "N#Cc1cnc2ccc(F)cc2c1N1CCC(C(=O)NCc2ccccc2)CC1"
quantitativereadout = 1230

[[record]]
querysmiles = "Cc1ccc(OC2CCN(c3c(C#N)cnc4c(F)cc(F)cc34)CC2)cn1"
quantitativereadout = 209

[[record]]
querysmiles = "N#Cc1cnc2ccc(F)cc2c1N1CCC(C(=O)Nc2ccc(S(N)(=O)=O)cc2)CC1"
quantitativereadout = 229


Batch lookup, EC50 per entry.
1. Cc1ccc2ncc(C#N)c(N3CCC(Oc4ccc(C)nc4)CC3)c2c1
2. Cn1nccc1NC(=O)C1CCN(c2c(C#N)cnc3ccc(F)cc23)CC1
3. N#Cc1cnc2ccc(F)cc2c1N1CCC(Oc2ccc(F)nc2)CC1
4. Cc1ccc(OC2CCN(c3c(C#N)cnc4cc(F)c(F)cc34)CC2)cn1
5. Cc1ccc(OC2CCN(c3c(C#N)cnc4ccc(F)cc34)CC2)c(F)n1
6. COc1ccccc1CNC(=O)C1CCN(c2c(C#N)cnc3ccc(F)cc23)CC1
7. COc1ccc(CNC(=O)C2CCN(c3c(C#N)cnc4ccc(F)cc34)CC2)cc1
8. N#Cc1cnc2ccc(F)cc2c1N1CCC(Oc2ccc(Cl)nc2)CC1

[out]
2950
1660
490
562
5370
589
617
562

[in] Any idea what its EC50 is? The compound is `Cc1ccc(OC2CCN(c3ccnc4ccc(F)cc34)CC2)cn1`
[out] 2140

----------
assay: Volume of distribution at steady state in dog plasma at 0.2 mg/kg administered as iv cassette dose; format: ADME, organism-based, Canis lupus familiaris; details: read-out: Vdss
propertyMeasured: Vd (L/kg)
Numbers only, in L/kg.

[in] Any idea what its Vd is? The molecule is `Cc1ccc(OC2CCN(c3c(C#N)cnc4ccc(F)cc34)CC2)cn1`
[out] 4

----------
assay: Clearance in human hepatocytes; assay type: ADME, cell-based, Hepatocyte
Give measured CLhep predicted for each item. Keep answers brief.
Answers are plain numbers, in mL/min/kg.

Consider the worked cases shown below.
[[record]]
querysmiles = "N#Cc1cnc2ccc(F)cc2c1N1CCC(C(=O)Nc2ccc(S(N)(=O)=O)cc2)CC1"
propertymeasured = "CLhep predicted"
u = "mL/min/kg"
quantitativereadout = 13

[[record]]
querysmiles = "Cc1ccc(OC2CCN(c3c(C#N)cnc4ccc(F)cc34)CC2)cn1"
propertymeasured = "CLhep predicted"
u = "mL/min/kg"
quantitativereadout = 15

[[record]]
querysmiles = "COc1ccc2c(c1)CCN(C(=O)C1CCN(c3c(C#N)cnc4ccc(F)cc34)CC1)C2"
propertymeasured = "CLhep predicted"
u = "mL/min/kg"
quantitativereadout = 20

[[record]]
querysmiles = "N#Cc1cnc2ccc(F)cc2c1N1CCC(C(=O)NCc2ccccc2)CC1"
propertymeasured = "CLhep predicted"
u = "mL/min/kg"
quantitativereadout = 17


Batch lookup, CLhep predicted per entry.
1. COc1ccc(CNC(=O)C2CCN(c3c(C#N)cnc4ccc(F)cc34)CC2)cc1F
2. Cc1ccc(OC2CCN(c3ncnc4ccc(F)cc34)CC2)cn1

[out]
1. 19
2. 20

The reported measurements were obtained from ChEMBL document CHEMBL4043207.
